Target: Macaca fascicularis IL-36R extracellular domain expressed with a C-terminal myc-myc-hexahistidine tag (Macaca fascicularis)
Assay: SPR Biacore T200, mAb captured by anti-hFc, 25C, PBS-T pH 7.4

BINDER	100 nM mfIL-36R-MMH Bound (RU)
H4H14757P (antibody, human IgG4 S228P, kappa, V domains shown) VH: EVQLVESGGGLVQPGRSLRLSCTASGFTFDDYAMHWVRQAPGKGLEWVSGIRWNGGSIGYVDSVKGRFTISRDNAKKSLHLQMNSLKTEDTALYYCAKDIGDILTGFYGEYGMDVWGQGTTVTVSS VL: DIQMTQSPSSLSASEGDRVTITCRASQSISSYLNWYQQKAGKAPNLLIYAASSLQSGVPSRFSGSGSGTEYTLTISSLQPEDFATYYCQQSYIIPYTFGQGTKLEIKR	1 RU
H4H14731P (antibody, human IgG4 S228P, kappa, V domains shown) VH: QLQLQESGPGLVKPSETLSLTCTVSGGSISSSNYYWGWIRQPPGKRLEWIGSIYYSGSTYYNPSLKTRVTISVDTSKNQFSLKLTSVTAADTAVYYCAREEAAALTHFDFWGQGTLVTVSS VL: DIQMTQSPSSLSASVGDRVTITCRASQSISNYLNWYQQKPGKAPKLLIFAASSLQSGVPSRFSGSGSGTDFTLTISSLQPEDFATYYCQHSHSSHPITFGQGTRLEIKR	36 RU
H4H14728P (antibody, human IgG4 S228P, kappa, V domains shown) VH: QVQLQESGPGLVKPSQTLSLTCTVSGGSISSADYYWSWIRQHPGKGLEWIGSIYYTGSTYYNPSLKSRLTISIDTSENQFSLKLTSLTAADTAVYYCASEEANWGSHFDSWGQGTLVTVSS VL: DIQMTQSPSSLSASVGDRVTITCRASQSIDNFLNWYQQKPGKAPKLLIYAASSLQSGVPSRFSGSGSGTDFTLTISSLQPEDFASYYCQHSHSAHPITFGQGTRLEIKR	74 RU
